Recorded viability increase by entry
PROCEDURE_SUMMARY: viability gain of MRP-1-high H69AR cells under doxorubicin, pilot screen, MRP-1 activator project, CellTiter-Glo, duplicate (AID 807);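 also: compound pretreatment 18-22 h then 72 h combined with doxorubicin; 0% = doxorubicin alone and 100% = vehicle without doxorubicin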
CONDITION_LABEL: H69AR viability with doxorubicin, CellTiter-Glo luminescence; at 10 µM; hits give high values
RECORDED_ENDPOINT: viability increase (%)

compound="CCOc1ccccc1NC(=O)N1CCCC1C(=O)Nc1ccc(-n2cnnn2)c(C)c1 (stereo unspecified)" numeric_result=0.16
compound=CC(C)(Oc1ccc(Cl)cc1)C(=O)Nc1ncccn1 numeric_result=-2.32
compound=Cn1c(NC(=O)Cc2ccc(F)cc2)cc(=O)n(C)c1=O numeric_result=3.42
compound=CCN(CC)C(=O)c1cn(CC)c(=O)c2cc(OC)c(OC)cc12 numeric_result=-3.37
compound=CCOC(=O)C1=C(C)S/C(=C\N(C)C)C1=O numeric_result=-0.78
compound=Cc1csc(NC(=O)CNS(=O)(=O)c2cccs2)n1 numeric_result=-2.55
compound=O=c1cc(-c2c(F)c(F)c(F)c(F)c2F)oc2c(F)c(F)c(F)c(F)c12 numeric_result=-7
compound="CC1CN(C(=O)c2cc3ccccc3oc2=O)CC(C)O1 (stereo unspecified)" numeric_result=0.49
compound=COc1ccccc1-c1cc(N)n(S(=O)(=O)c2ccc(F)c(C)c2)n1 numeric_result=-3.08
compound=CC(=O)c1ccc(OCC(O)COc2ccc(C(C)=O)cc2)cc1 numeric_result=0.11
compound=Cc1cc(NC(=O)CSc2nnc(C)c(=O)[nH]2)no1 numeric_result=0.9
compound=COc1ccc(S(=O)(=O)N(C)c2c(C)n(C)n(-c3ccccc3)c2=O)cc1OC numeric_result=-1.65
compound=Cc1ccc(C)c(S(=O)(=O)Nc2ccc(O)cc2)c1 numeric_result=-2.63
compound=CCc1nnc(NC(=O)CCC(=O)O)s1 numeric_result=0.56
compound=CC(=O)NC(NC(C)=O)c1ccc(N(C)C)cc1 numeric_result=-0.12
compound=COc1cc2c(C(=O)NCc3ccccn3)cn(C)c(=O)c2cc1OC numeric_result=-1.1
compound=COCCCNc1oc(-c2ccccc2F)nc1C#N numeric_result=2.02
compound="COCCN(C(=O)Nc1ccccc1)C(C)c1cccnc1 (stereo unspecified)" numeric_result=-2.41
compound=CCOC(=O)N1CCN(S(=O)(=O)c2cc(Br)cc3c2N(C(=O)C2CC2)CC3)CC1 numeric_result=-1.65
compound="CC1CCCCN1Cc1nc2c(c(=O)n(C)c(=O)n2C)n1Cc1c(F)cccc1Cl (stereo unspecified)" numeric_result=-3.05
compound=COc1cccc(CNC(=O)CN(c2cc(C)cc(C)c2)S(=O)(=O)c2c(C)noc2C)c1 numeric_result=-2.41
compound=CC1CCN(c2nc3c(c(=O)[nH]c(=O)n3C)n2Cc2ccccc2Cl)CC1 numeric_result=-6.47
compound=O=c1c2cnn(-c3ccccc3)c2nc(-c2ccco2)n1-c1ccccc1 numeric_result=-5.59
compound=O=C(c1cc(-c2ccc(O)cc2)on1)N1CCc2ccccc2C1 numeric_result=-4.4
compound=Cn1c(Cn2c(=O)sc3ccccc32)nnc1SCC(=O)N1CCOCC1 numeric_result=-1.17
compound=C=CCn1c(=O)[nH]c2cc(C(=O)N3CCN(c4cccc(Cl)c4)CC3)ccc2c1=O numeric_result=-6.95
compound=CN(C)CCCNCCCNC(=O)/C(=N\O)c1ccccn1 numeric_result=1.1
compound=Brc1cc(Br)c2ncnc(N3CCCCC3)c2c1 numeric_result=-7.95
compound=CSC(=NCCCN1CCOCC1)NS(=O)(=O)c1cccs1 numeric_result=-1.56
compound=COCc1nc(-c2ccc(-c3ccc(OC)cc3)nc2OC)no1 numeric_result=-0.98
compound=CCOC(=O)C1CCN(C(=O)c2oc3ccc(S(=O)(=O)N4CCCCCC4)cc3c2C)CC1 numeric_result=-3.23
compound=O=C(NC1CCCCCC1)C1CCN(S(=O)(=O)c2cccc3cccnc23)CC1 numeric_result=2.08
compound="COc1ccc(C(CNC(=O)C2CC(=O)N(Cc3ccc(C)cc3)C2)N(C)C)cc1 (stereo unspecified)" numeric_result=-0.21
compound=CCN(CC)c1ccc(/C=N/n2c(C)cc(C)cc2=O)cc1 numeric_result=-0.57
compound="O=C(CCCCCN1C(=O)C2C3C=CC(C3)C2C1=O)Nc1nccs1 (stereo unspecified)" numeric_result=-1.31
compound="CC(C)c1ccc(C2CC(=O)N3CN(C)CSC3=C2C#N)cc1 (stereo unspecified)" numeric_result=-4.3
compound=O=C(Nc1nnc(-c2cccs2)o1)c1cccc(F)c1 numeric_result=-1.42
compound=O=C(NCc1nc2ccccc2[nH]1)c1ccc(S(=O)(=O)N2CCOCC2)cc1 numeric_result=-2.83
compound="OC(COc1ccc(C2C=CCC2)cc1)CN1CCCCC1 (stereo unspecified)" numeric_result=-4.7
compound=CCSc1nc2ccccc2n1S(=O)(=O)c1ccccc1 numeric_result=-0.8
compound=CN1CCN(Cc2ccc(-c3ccc(Cl)cc3)o2)CC1 numeric_result=-2.14
compound="CCc1ccc(C2CC(c3ccc(F)cc3)Nc3nc(N)nn32)cc1 (stereo unspecified)" numeric_result=-0.06
compound=COc1ccc(CN2CCN(C(=O)c3cccs3)CC2)cc1Br numeric_result=-1.27
compound=O=C1c2ccccc2C(=O)N1CCCC(=O)N1CCc2ccccc21 numeric_result=-0.37
compound=CCCCn1c(=NC(=O)c2ccco2)c(C(=O)OCC)cc2c(=O)n3ccccc3nc21 numeric_result=-6.94
compound=COc1cc2c(cc1NC(C)=O)CCCC2 numeric_result=-4.13

* * *

PROCEDURE_SUMMARY: viability gain of MRP-1-high H69AR cells under doxorubicin, pilot screen, MRP-1 activator project, CellTiter-Glo, duplicate (AID 807);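 also: compound pretreatment 18-22 h then 72 h combined with doxorubicin; 0% = doxorubicin alone and 100% = vehicle without doxorubicin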
CONDITION_LABEL: H69AR viability with doxorubicin, CellTiter-Glo luminescence; at 10 µM; hits give high values
Calls of active or inactive are those of the source.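 Rule for the calls: active = viability increase at or above a cutoff of the median across tested compounds plus 3 SD (cut at about 8.5% in these data, passing the limit was not always enough); inconclusive = some gains above the cutoff, reason not given; inactive = the rest.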
Below: a set of entries, each annotated with reported viability increase.
RECORDED_ENDPOINT: viability increase

compound="CCOc1ccc(C(=O)Nc2c3c(nn2-c2ccc(C)cc2)CS(=O)C3)cc1OCC (centres undefined)" result="-1.84% (inactive)"
compound=COc1cc2c(cc1OC)CN(S(C)(=O)=O)CC2 result="-2.27% (inactive)"
compound=COc1cc(OC)cc(C(=O)Nc2cccc(C(C)=O)c2)c1 result="-2.42% (inactive)"
compound="CN=C1SC(CC(=O)Nc2ccccc2F)C(=O)N1C (centres undefined)" result="-0.48% (inactive)"
compound=O=C1C2=C(SCCS2)C(=O)N1CCCO result="0.11% (inactive)"
compound=O=C(CSc1nc(-c2ccco2)cc(C(F)(F)F)n1)Nc1ccc(C(=O)N2CCCCC2)cc1 result="-2.87% (inactive)"
compound="CCOC(=O)C(C)Sc1nnc(Cc2cc(=O)[nH]c(=O)[nH]2)n1-c1ccc(OCC)cc1 (centres undefined)" result="-0.85% (inactive)"
compound=COc1ccc(CNC(=O)c2cc3c(C)nc4ccccc4c3o2)c(OC)c1 result="-0.17% (inactive)"
compound=O=C(c1ccccc1)c1ccc2nc(N3CCCCC3)c3nncn3c2c1 result="-3.48% (inactive)"
compound=Cc1ccc(-c2nn3c(C)nnc3s2)cc1NC(=O)c1ccc(Br)o1 result="-3.03% (inactive)"
compound=Cc1cc(S(=O)(=O)N2CCN(Cc3ccccc3)CC2)c(C)s1 result="-1.58% (inactive)"
compound=O=C(Cn1c(=O)oc2cc(S(=O)(=O)N3CCOCC3)ccc21)N1CCc2ccccc2C1 result="-2.45% (inactive)"
compound=Nn1c(SC/C=C/c2ccccc2)nnc1-c1ccccn1 result="-0.88% (inactive)"
compound=NC(=O)C1CCN(C(=O)CCCCCn2c(=O)[nH]c3ccsc3c2=O)CC1 result="-3.22% (inactive)"
compound=CCOC(=O)Cc1nnc(NC(=O)CSc2nncn2C)s1 result="-0.06% (inactive)"
compound=CCOC(=O)N1CCN(C(=O)C(C)(C)Oc2ccc(Cl)cc2)CC1 result="-1.61% (inactive)"
compound=CCOC(=O)N1CCC(NC(=O)CN2C(=O)CSc3ncccc32)CC1 result="-0.23% (inactive)"
compound=c1ccc(Nc2nc(N3CCCCC3)nc(N3CCNCC3)n2)cc1 result="-8.19% (inactive)"
compound="CSc1nnc(C2CCCN2)n1C (centres undefined)" result="-0.51% (inactive)"
compound=Cn1cnnc1SCCC(=O)Nc1ccccc1 result="-1.01% (inactive)"
compound=c1cn2cc(-c3ccc4c(c3)OCO4)nc2s1 result="1.35% (inactive)"
compound=CCCOc1nc2c(c(=O)n(C)c(=O)n2C)n1Cc1cccc2ccccc12 result="-4.04% (inactive)"
compound="CCCC(=O)C1=C(O)C(C(=O)OC)C(C)(C)CC1=N (centres undefined)" result="-0.38% (inactive)"
compound=CC(=O)NCCOC(=O)Nc1ccncc1 result="-0.91% (inactive)"

* * *

PROCEDURE_SUMMARY: 384-well plate pilot, post-Golgi transport modulator project, inhibition of yeast transport mutant growth (AID 636)
CONDITION_LABEL: absorbance 615 nm, about 18 h, hits give high values
Reported inhibition values follow for various compounds
RECORDED_ENDPOINT: inhibition (%)

compound=O=C(COc1cccc(Oc2ccccc2)c1)Nc1ncccn1 numeric_result=-3.9
compound=CCCc1nnc(NC(=O)CCC(=O)N2CCN(CCOc3ccc(C)cc3)CC2)s1 numeric_result=-4.03
compound=COc1ccc(-n2c(Cc3cccn3C)nnc2SCC(=O)Nc2cccc(OC)c2)cc1 numeric_result=1.79
compound="COCCN(C(=O)CCC(=O)Nc1ccccn1)C(C(=O)NC1CCCC1)c1ccc(OC)cc1 (configuration not stated)" numeric_result=2.57
compound=O=C(CSc1ncccn1)NCc1ccccc1 numeric_result=4.4
compound="O=C(NCC(=O)N(c1cnc2ccccc2c1)C(C(=O)NC1CCCC1)c1ccncc1)c1ccco1 (configuration not stated)" numeric_result=3.64
compound=COc1ccc(-n2c(COc3ccccc3)nnc2SCc2ccc(C#N)cc2)cc1 numeric_result=0
compound="O=C(c1ccc(S(=O)(=O)N2CCOCC2)cc1)N(c1ccc(F)cc1)C1C=CS(=O)(=O)C1 (configuration not stated)" numeric_result=-1.92
compound="O=C(CS(=O)CC(=O)Nc1cccc2c1CCCC2)Nc1ccc(F)cc1 (configuration not stated)" numeric_result=-6.93
compound="COc1ccccc1NC(=O)C1CC(=O)N(c2ccc(F)cc2)C1 (configuration not stated)" numeric_result=0.53
compound=Cc1ccc(C)c(N2CCN(C(=O)c3ccc(CS(=O)(=O)c4ccccc4C)o3)CC2)c1 numeric_result=-3.16
compound=c1ccc(CNc2ccc3c(c2)ncn3C2CCCCC2)nc1 numeric_result=-1.05
compound="COc1ccccc1C1C(C(C)=O)=C(O)C(=O)N1CCc1ccccc1 (configuration not stated)" numeric_result=-5.07
compound=CCOC(=O)CSc1nc(N)c2c3c(sc2n1)CCCC3 numeric_result=0.8
compound="COc1ccc(Br)cc1S(=O)(=O)N1CC(C)OC(C)C1 (configuration not stated)" numeric_result=1.73
compound=O=C(CSc1nc2ccsc2c(=O)n1NC(=O)c1ccccc1)Nc1nccs1 numeric_result=-4.74
compound=Cc1ccc(-c2nn(C)c(=O)c3ccccc23)cc1S(=O)(=O)NCCN1CCOCC1 numeric_result=6.8
compound="O=C(Nc1ccc2c(c1)OCCO2)C1CCCN(S(=O)(=O)c2cnc[nH]2)C1 (configuration not stated)" numeric_result=-3.2
compound="CCCC1(C(=O)OCC)NC(c2ccc(N(C)C)cc2)C2C(=O)N(c3ccc(F)cc3)C(=O)C21 (configuration not stated)" numeric_result=0
compound=O=C(CSc1nnnn1-c1ccc(Cl)cc1)NC(=O)Nc1ccc2c(c1)OCCO2 numeric_result=-6
compound=Cn1c(-c2ccccc2)cc(=O)c2ccccc21 numeric_result=-1.43
compound=CCn1c(=O)cc(OCC(=O)Nc2cc(C)ccn2)c2ccccc21 numeric_result=-2.89
